Values were extracted from the SangsterLogP compilation.

A collection of compounds and their measured logP
assayProcedure: method code SF, from Hansch, C. & Leo, A. (1987). Log P database [Dataset]. Pomona College Medicinal Chemistry Project.
Lab note: write the figure by itself, no unit.

Below: 5 compounds and their reported logP.
INSERT INTO measurements (givensmiles, quantity, obsvalue) VALUES
  ('CC(=O)Nc1ccc(C(F)(F)F)cc1', 'logP', 2.52),
  ('CCCC(C(=O)OCCN(CC)CC)(c1ccccc1)c1ccccc1', 'logP', 4.65),
  ('CCOC(=O)C(=Cc1ccccc1)C(=O)OCC', 'logP', 3.13),
  ('COC(=O)c1cc(Oc2ccc(Cl)cc2Cl)ccc1[N+](=O)[O-]', 'logP', 4.48),
  ('O=CC=Cc1ccco1', 'logP', 1.15);

// query Output logP of CCc1n[nH]c(=O)[nH]c1=O
// result 0.22

// query Give recorded logP. CC(=O)CCN(C)c1ccc(S(=O)(=O)N(C)C)cc1
// result 0.23
